# assayed.target: recombinant human estrone sulfatase (Homo sapiens, UniProt P08842)
# Sequence (P08842 22-583): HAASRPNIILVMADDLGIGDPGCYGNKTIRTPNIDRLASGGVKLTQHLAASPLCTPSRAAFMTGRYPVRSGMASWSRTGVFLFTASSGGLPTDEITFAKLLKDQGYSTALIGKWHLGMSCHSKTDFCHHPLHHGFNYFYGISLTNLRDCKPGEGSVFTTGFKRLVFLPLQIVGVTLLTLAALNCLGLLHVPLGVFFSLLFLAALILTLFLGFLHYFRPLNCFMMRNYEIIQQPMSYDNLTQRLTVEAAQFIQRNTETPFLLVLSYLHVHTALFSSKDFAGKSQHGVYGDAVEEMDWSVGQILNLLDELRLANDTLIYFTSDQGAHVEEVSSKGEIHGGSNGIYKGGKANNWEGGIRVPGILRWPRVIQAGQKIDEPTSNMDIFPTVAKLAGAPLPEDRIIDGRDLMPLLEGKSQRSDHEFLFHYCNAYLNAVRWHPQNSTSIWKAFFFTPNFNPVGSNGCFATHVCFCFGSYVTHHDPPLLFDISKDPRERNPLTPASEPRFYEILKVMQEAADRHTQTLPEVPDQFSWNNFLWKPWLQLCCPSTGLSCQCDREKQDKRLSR
# method.description: Estrone sulfatase (steroid sulfatase) inhibition test (Method A), [3H]-estrone sulfate substrate
# Assay type: biochemical
# test.settings: [6,7-3H]-estrone sulfate 6.67 μmol/L, pH 7.5, 37° C., 30 minutes, read-out: Inhibitory Activity against Steroid Sulfatase IC50
Flag rule - IC50 less than 6 nM flags condition met; the remaining entries get condition not met.

Query :: Take the compound COCCNC(=O)C1CCC2C3CCc4cc(OS(N)(=O)=O)ccc4C3CCC12C (centres unmarked) and say whether its IC50 is less than 6 nM.
Result :: condition not met

Query :: Now the same for CC12CCC3c4ccc(OS(N)(=O)=O)cc4CCC3C1CC=C2C(=O)N1CCCC1 (centres unmarked)
Result :: condition met

Query :: CC12CCC3c4ccc(OS(N)(=O)=O)cc4CCC3C1CC=C2C(=O)NC1CCCC1 (centres unmarked) ?
Result :: condition met

Query :: What about C=CCNC(=O)C1=CCC2C3CCc4cc(OS(N)(=O)=O)ccc4C3CCC12C (centres unmarked) ?
Result :: condition met

Query :: Another compound to look at: CC12CCC3c4ccc(OS(N)(=O)=O)cc4CCC3C1CC=C2C(=O)NCCCCO (centres unmarked)
Result :: condition not met

Query :: Same thing, different compound: COCCNC(=O)C1=CCC2C3CCc4cc(OS(N)(=O)=O)ccc4C3CCC12C (centres unmarked)
Result :: condition met

Query :: Same for COC(=O)C(NC(=O)C1=CCC2C3CCc4cc(OS(N)(=O)=O)ccc4C3CCC12C)C(C)C (centres unmarked)
Result :: condition met

Entry source: patent US6953785B2
